# key: entry, value: cell viability
tested on: MARIMO; assay: cell viability relative to vehicle control; higher = less cytotoxic; conditions: 10 µM; SRSF2 genotype: SRSF2 P95H/wt;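 further: after 48 h exposure read by CellTiter-Glo luminescence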

The following compounds have reported results that may help.
COMPOUND | cell viability
CCOC(=O)C1=C(C)NC(=S)NC1c1cccc(O)c1 (centres undefined) | 103%
Cc1cc(Nc2cc(N)ncn2)c(=O)n2c1C(=O)NC21CCCCC1 | 86%

[Q] Give the reported cell viability for O=C(COc1ccc(Cl)cc1)NC1CCC(NC(=O)COc2ccc(Cl)cc2)CC1 (stereo not drawn) [ISRIB (trans-isomer)] (system: MARIMO).
[A] 103%

[Q] Value wanted: cell viability (MARIMO) of entry Cc1cc(Nc2ncc3c(n2)N(C)C(=O)N(c2cc(NC(=O)c4cccc(C(F)(F)F)c4)ccc2C)C3)n(C)n1 [Pluripotin (SC1)]
[A] 22.1%

* * *

tested on: OCI-AML2; assay: cell viability relative to vehicle control; higher = less cytotoxic; details: 10 µM; SRSF2 genotype: wt/wt
Counter-ions that a name gives are not always drawn.
Below is a list of entries, each paired with its recorded cell viability value.
Supply the numeric figure in %, leaving out any unit text.

COMPOUND | cell viability [%]
N#Cc1ccc([C@H]2CCc3cncn32)c(F)c1 | 94.6

[Q] Any idea what its cell viability is? The compound is O=c1[nH]c(=O)n(C2CC(O)C(CO)O2)cc1I (centres undefined)
[A] 84.3

[Q] So what does the record say about cell viability for COc1ccc(-c2cc(=O)c3c(O)cc(OC4OC(CO)C(O)C(O)C4OC4OC(C)C(O)C(O)C4O)cc3o2)cc1O (centres undefined) ?
[A] 94.4

[Q] Fill blank: measured cell viability of the compound Cc1nc(=O)c2cc(CN(C)c3ccc(C(=O)N[C@@H](CCC(=O)O)C(=O)O)s3)ccc2[nH]1 is ____.
[A] 118

[Q] Using the record for C=C(C)[C@@H]1CC[C@]2(C(=O)O)CC[C@]3(C)[C@H](CC[C@@H]4[C@@]5(C)CC[C@H](O)C(C)(C)[C@@H]5CC[C@]43C)[C@@H]12 , report its cell viability.
[A] 65

[Q] Could you share which cell viability value was measured for CCCNC[C@]1(O)[C@H](C)O[C@@H](O[C@H]2[C@H](C)[C@@H](O[C@@H]3O[C@H](C)C[C@H](N(C)C)[C@H]3O)[C@](C)(O)C[C@@H](C)CN[C@H](C)[C@@H](O)[C@](C)(O)[C@@H](CC)OC(=O)[C@@H]2C)C[C@@]1(C)OC ?
[A] 99

[Q] May I ask what cell viability has been recorded for CC(=O)OCCc1ccc(O)c(O)c1 [Hydroxytyrosol Acetate] ?
[A] 110

[Q] Would you mind telling me what cell viability value was observed for O=C(Cn1ccnc1[N+](=O)[O-])NCc1ccccc1 ?
[A] 100

[Q] What does the data say about its cell viability? Entry: CC(C)(C(=O)O)c1ccc(C(O)CCCN2CCC(C(O)(c3ccccc3)c3ccccc3)CC2)cc1 (centres undefined) [Fexofenadine HCl]
[A] 110

* * *

test system: K562; assay: cell viability relative to vehicle control; higher = less cytotoxic; conditions: 10 µM; SRSF2 genotype: SRSF2 wt/wt
ENDPOINT NAME: cell viability (%)
Response body: numeric value in %, unit text excluded.

COMPOUND | MEASURED RESULT
CC=Cc1cc(OC)c2c(c1)C(C)C(c1ccc(O)c(OC)c1)O2 (stereo not given) [Dehydrodiisoeugenol] | 90.4
CC(C)CCNc1ncccc1C(=O)N1CCN(Cc2ccccc2)CC1 | 102
O=C1[C@H](CC[C@H](O)c2ccc(F)cc2)[C@@H](c2ccc(O)cc2)N1c1ccc(F)cc1 [Ezetimibe (Zetia)] | 102

[Q] # get_value(readout='cell viability', item= Cn1cc(C2=C(c3cccc(N)c3)C(=O)NC2=O)c2ccccc21 )
[A] 58.5

[Q] # lookup: cell viability of Cc1ccnc(NS(=O)(=O)c2ccc(N)cc2)n1
[A] 101
